Consider the following compounds and their measured Inhibition readings.
System: Plasmodium falciparum
experimental protocol: GSK_TCMDC: Inhibition of Plasmodium falciparum Dd2 in whole red blood cells, using parasite LDH activity as an index of growth. Test compounds present at 2uM
Assay type: functional
Report the value in % with no unit label.

Some entries whose results are on file:
CCCC(=O)Nc1ccc(OCCCN(Cc2ccccc2C(F)(F)F)c2ccc(C#N)c(C(F)(F)F)c2)cc1 | 79
Cc1cc(N2CCCCC2)nc2ccc(NC(=O)c3cc(=O)c4ccccc4o3)cc12 | 19
COC(=O)CNC(c1ccccc1)c1cc(Br)ccc1NC(=O)c1ccccc1Br (centres undefined) | 77
N#CCOc1c(C2CCN(CCCCNC(=O)c3ccc(-c4ccc(C(F)(F)F)cc4)cc3)CC2)ccc2c1CCCC2 | 48

-- ask Specify measured Inhibition for "COc1cc(NC(=O)/C=C/c2ccccc2OC(F)(F)F)cc(OCCN2CCC(O)(c3ccccc3)CC2)c1.O=C(O)C(=O)O" .
-- reply 50

-- ask Specify measured Inhibition for "O=C(O)C(F)(F)F.Oc1ccc(CN2Cc3ccccc3OC3(CCN(Cc4c[nH]c5cnccc45)CC3)C2)cc1" .
-- reply 3

-- ask Specify measured Inhibition for "CCN(CC)CCON=Cc1cc(C)c2[nH]c3ccc(OCc4ccccc4)cc3c2c1C" .
-- reply 29

-- ask Specify measured Inhibition for "Cc1ccc(C(=O)Cn2nc(-c3ccc(C)c(S(=O)(=O)N4CCCC4)c3)ccc2=O)cc1" .
-- reply 70

-- ask Specify measured Inhibition for "COc1cccc(-c2cc(C(F)(F)F)n3ncc(C(=O)Nc4cc(C)ccc4O)c3n2)c1" .
-- reply 99

###

Test system: Plasmodium falciparum
experimental protocol: GSK_TCMDC: Inhibition of Plasmodium falciparum Dd2 in whole red blood cells, using parasite LDH activity as an index of growth. Test compounds present at 2uM
Assay type: functional
Everything with Inhibition lower than 30% is No; everything else, including exactly 30%, is Yes.

Reference set (5 entries):
CC(=O)Nc1ccc(CN(Cc2ccc(F)cc2)Cc2cccc(Oc3ccccc3)c2)cc1 | Yes
CCN(CCCN1CCCCC1)c1cc(C)nc(Nc2cccc(C(F)(F)F)c2C)n1.O=C(O)C(F)(F)F | Yes
O=C(O)C(F)(F)F.c1ccc2[nH]c(-c3ccc(-c4ccc(CN5CCCCC5)cc4)cc3)nc2c1 | Yes
CCN(CC)CCCC(C)Nc1c2ccccc2nc2ccc3ccccc3c12.Cl (centres undefined) | Yes
Nc1ccnc(N2CCC(CCOc3ccnc4cc(Cl)ccc34)CC2)c1.O=C(O)C(F)(F)F | Yes

# ---- query molecule ----
-- ask Determine whether measured Inhibition meets or exceeds 30% for "N#Cc1cc(C(=O)c2cc(Cl)ccc2O)cn(-c2cccc(C(F)(F)F)c2)c1=O"
-- reply No

###

Tested on: Plasmodium falciparum
experimental protocol: GSK_TCMDC: Inhibition of Plasmodium falciparum 3D7 in whole red blood cells, using parasite LDH activity as an index of growth. Test compounds present at 2uM
Format: functional
outcome measure: Inhibition (%)
Report the value in % with no unit label.

NC1=NC(c2ccccc2)(c2ccccc2)C(=O)N1C1CCCCC1.O=CO | 100
C#CCOc1ccccc1CN1CCC(N2CCc3cc(NC(=O)c4cc(C)on4)ccc32)C1 (stereo unspecified) | 95
O=C(O)C(F)(F)F.Oc1ccc(CN2Cc3ccccc3OC3(CCN(Cc4c[nH]c5cnccc45)CC3)C2)cc1 | 100
CCCCNC(=O)[C@@H]1CCCN1C(=O)c1ccc(O)c(-c2ccc(Cl)c(Cl)c2)c1 | 98

-- ask Fetch value of Inhibition on Plasmodium falciparum for "Cc1cc(C(=O)N[C@H]2CCN(Cc3ccc(OCCCN(C)C)cc3)C2)ccc1Br.O=C(O)C(F)(F)F" .
-- reply 97

-- ask Fetch value of Inhibition on Plasmodium falciparum for "COc1ccc2nc(C)cc(Nc3ccc(Oc4ccc(Cl)cc4)c(Cl)c3)c2c1" .
-- reply 100

-- ask Fetch value of Inhibition on Plasmodium falciparum for "O=C(O)C(F)(F)F.c1ccc(CCNCc2cccc(-c3ccc(CNc4ccc5ncccc5c4)cc3)c2)cc1" .
-- reply 93

-- ask Fetch value of Inhibition on Plasmodium falciparum for "CN(C)Cc1ccc(-c2cccc(NC(=O)c3cccc(Cl)c3)c2)cc1.O=C(O)C(F)(F)F" .
-- reply 96

-- ask Fetch value of Inhibition on Plasmodium falciparum for COc1cc(Cc2cnc(N)nc2N)cc(OCCCCC2SC(=O)NC2=O)c1Br (stereo unspecified) .
-- reply 94

-- ask Fetch value of Inhibition on Plasmodium falciparum for "O=C(O)C(F)(F)F.Oc1ccc(CCNc2nc(NCc3cccc(-c4cc(C(F)(F)F)ccc4Cl)c3)nc(N3CCNCC3)n2)cc1" .
-- reply 90

-- ask Fetch value of Inhibition on Plasmodium falciparum for "CC(C)(C)c1cc(C(=O)Nc2cccnc2)cc(C(=O)Nc2cccnc2)c1" .
-- reply 95

-- ask Fetch value of Inhibition on Plasmodium falciparum for CCC(CO)NCC(O)Cn1c2ccc(Br)cc2c2cc(Br)ccc21 (stereo unspecified) .
-- reply 100

-- ask Fetch value of Inhibition on Plasmodium falciparum for "COc1cccc(Nc2nc(C)cc(NC3CCCC3)n2)c1" .
-- reply 100

-- ask Fetch value of Inhibition on Plasmodium falciparum for "O=c1cc(NCCCN(Cc2cc3c(Cl)cc(Cl)cc3[nH]2)Cc2cc3c(Cl)cc(Cl)cc3[nH]2)[nH]c2ccccc12" .
-- reply 87

-- ask Fetch value of Inhibition on Plasmodium falciparum for "COc1ccc2nccc([C@@H](O)CN3CCC(NC(=O)c4ccc5nc(-n6cccc6)sc5c4)CC3)c2c1" .
-- reply 90

-- ask Fetch value of Inhibition on Plasmodium falciparum for "COc1cc(Br)c(S(=O)(=O)n2cc(CN3CCC(N)CC3)c3cc(Cl)ccc32)cc1OC.O=C(O)C(F)(F)F" .
-- reply 99

-- ask Fetch value of Inhibition on Plasmodium falciparum for "COc1ccc(-c2ccc(NC(=O)c3ccc(C#N)cc3)cc2)cc1CN1CCCC1.O=C(O)C(F)(F)F" .
-- reply 95

-- ask Fetch value of Inhibition on Plasmodium falciparum for "CCN1CCN(c2cc(C)c3cc(NC(=O)c4ccc([N+](=O)[O-])c(C)c4)ccc3n2)CC1" .
-- reply 92

-- ask Fetch value of Inhibition on Plasmodium falciparum for "O=C(Nc1ccc2c(c1)CCC2)N[C@H]1CCN(Cc2ccc(OCCCN3CCCCC3)cc2)C1" .
-- reply 96

-- ask Fetch value of Inhibition on Plasmodium falciparum for "FC(F)(F)c1ccc2[nH]c(-c3ccc(-c4cccc(CN5CCC(CCN6CCCCC6)CC5)c4)cc3)nc2c1.O=C(O)C(F)(F)F" .
-- reply 100
